- tgt: HLA-A*02:06
- experiment summary: IEDB peptide-MHC binding, purified MHC/competitive/radioactivity; filed as Kd, often an IC50 or EC50 that approximates it; bounds were set here for any values at or beyond the usual limits of such assays
- particulars: source organism: Hepatitis C virus (isolate BK)
pKd: −log10 of the molar value.
attribute measured: pKd

[[record]]
sequence_code = "CVNGVCWTV"
attribute_measured = "pKd"
measured = 5.57


---

- tgt: HLA-A*31:01
- experiment summary: IEDB peptide-MHC binding, purified MHC/direct/fluorescence; filed as Kd, often an IC50 or EC50 that approximates it; bounds were set here for any values at or beyond the usual limits of such assays
- particulars: source organism: Ectopseudomonas mendocina
attribute measured: Kd

[[record]]
sequence_code = "FSDARLAKL"
measured = "≥ 20 µM"


---

- tgt: HLA-B*18:01
- experiment summary: IEDB peptide-MHC binding, purified MHC/competitive/fluorescence; filed as Kd, often an IC50 or EC50 that approximates it; bounds were set here for any values at or beyond the usual limits of such assays
- particulars: source organism: Vibrio vulnificus CMCP6
attribute measured: Kd

[[record]]
sequence_code = "FGAQMGWPV"
attribute_measured = "Kd"
measured = "≥ 20 µM"


---

- tgt: HLA-A*01:01
- experiment summary: IEDB peptide-MHC binding, purified MHC/competitive/radioactivity; bounds were set here for any values at or beyond the usual limits of such assays
- particulars: source organism: Human papillomavirus 16
attribute measured: IC50 (nM)

[[record]]
sequence_code = "KSAIVTLTY"
measured = 11


---

- tgt: HLA-A*02:03
- experiment summary: IEDB peptide-MHC binding, purified MHC/competitive/radioactivity; filed as Kd, often an IC50 or EC50 that approximates it; bounds were set here for any values at or beyond the usual limits of such assays
- particulars: source organism: SARS coronavirus Tor2
pKd: −log10 of the molar value.
Param threshold (7) applies to pKd; output t when value >= threshold, f when value < threshold.

[[record]]
sequence_code = "YMLFTKFFYL"
assigned_class = "t"

[[record]]
sequence_code = "LLDDFVEII"
assigned_class = "f"

[[record]]
sequence_code = "LMYKGLPWNV"
assigned_class = "t"

[[record]]
sequence_code = "YLMCLSPLMA"
assigned_class = "t"


---

- tgt: HLA-B*07:02
- experiment summary: IEDB peptide-MHC binding, purified MHC/competitive/fluorescence; filed as Kd, often an IC50 or EC50 that approximates it; bounds were set here for any values at or beyond the usual limits of such assays
- particulars: source organism: Encephalitozoon cuniculi GB-M1
pKd: −log10 of the molar value.
attribute measured: pKd

[[record]]
sequence_code = "ILRQNMIAL"
tgt = "HLA-B*07:02"
attribute_measured = "pKd"
measured = 6.70


---

- tgt: HLA-A*02:16
- experiment summary: IEDB peptide-MHC binding, purified MHC/direct/fluorescence; filed as Kd, often an IC50 or EC50 that approximates it; bounds were set here for any values at or beyond the usual limits of such assays
- particulars: source organism: Brucella suis 1330
attribute measured: Kd

[[record]]
sequence_code = "DPPEPLVRI"
tgt = "HLA-A*02:16"
measured = "≥ 20 µM"


---

- tgt: HLA-A*23:01
- experiment summary: IEDB peptide-MHC binding, purified MHC/direct/fluorescence; filed as Kd, often an IC50 or EC50 that approximates it; bounds were set here for any values at or beyond the usual limits of such assays
- particulars: source organism: Zaire ebolavirus
pKd: −log10 of the molar value.
attribute measured: pKd

[[record]]
sequence_code = "FLYDRLAST"
measured = "≤ 4.70"


---

- tgt: HLA-A*25:01
- experiment summary: IEDB peptide-MHC binding, purified MHC/competitive/fluorescence; bounds were set here for any values at or beyond the usual limits of such assays
- particulars: source organism: Rattus norvegicus
pIC50: −log10 of the molar value.
attribute measured: pIC50

[[record]]
sequence_code = "SLLERGQQLGV"
measured = "≤ 4.70"


---

- tgt: HLA-C*08:02
- experiment summary: IEDB peptide-MHC binding, purified MHC/direct/fluorescence; filed as Kd, often an IC50 or EC50 that approximates it; bounds were set here for any values at or beyond the usual limits of such assays
- particulars: source organism: Orthomarburgvirus marburgense
attribute measured: Kd

[[record]]
sequence_code = "YLAPSYRNF"
attribute_measured = "Kd"
measured = "≥ 20 µM"


---

- tgt: HLA-B*15:01
- experiment summary: IEDB peptide-MHC binding, purified MHC/competitive/fluorescence; bounds were set here for any values at or beyond the usual limits of such assays
- particulars: source organism: Vaccinia virus Copenhagen
pIC50: −log10 of the molar value.
attribute measured: pIC50

[[record]]
sequence_code = "VTAASPMLY"
qualifier_sign = "="
measured = 5.35

[[record]]
sequence_code = "ILRSIEGEL"
qualifier_sign = "="
measured = 4.40

[[record]]
sequence_code = "VSAGESSIL"
qualifier_sign = "≤"
measured = 4.06


---

- tgt: HLA-C*15:02
- experiment summary: IEDB peptide-MHC binding, purified MHC/direct/fluorescence; filed as Kd, often an IC50 or EC50 that approximates it; bounds were set here for any values at or beyond the usual limits of such assays
- particulars: source organism: Salmonella enterica subsp. arizonae serovar 62:z4,z23:-
attribute measured: Kd (nM)

[[record]]
sequence_code = "YTIYGAWMF"
measured = 1730


---

- tgt: HLA-A*02:50
- experiment summary: IEDB peptide-MHC binding, purified MHC/competitive/fluorescence; filed as Kd, often an IC50 or EC50 that approximates it; bounds were set here for any values at or beyond the usual limits of such assays
- particulars: source organism: Salmonella enterica subsp. enterica serovar Paratyphi B str. SPB7
attribute measured: Kd

[[record]]
sequence_code = "LLQGVPFHV"
measured = "≤ 0.1 nM"


---

- tgt: HLA-B*15:17
- experiment summary: IEDB peptide-MHC binding, purified MHC/competitive/fluorescence; filed as Kd, often an IC50 or EC50 that approximates it; bounds were set here for any values at or beyond the usual limits of such assays
- particulars: source organism: Hantavirus HPR/02-73
attribute measured: Kd

[[record]]
sequence_code = "GFAIPIILK"
attribute_measured = "Kd"
measured = "≥ 20 µM"


---

- tgt: HLA-A*11:01
- experiment summary: IEDB peptide-MHC binding, purified MHC/direct/fluorescence; filed as Kd, often an IC50 or EC50 that approximates it; bounds were set here for any values at or beyond the usual limits of such assays
- particulars: source organism: Vibrio parahaemolyticus
attribute measured: Kd

[[record]]
sequence_code = "DTWHGFKNM"
attribute_measured = "Kd"
measured = "≥ 20 µM"


---

- tgt: HLA-A*24:02
- experiment summary: IEDB peptide-MHC binding, purified MHC/direct/fluorescence; filed as Kd, often an IC50 or EC50 that approximates it; bounds were set here for any values at or beyond the usual limits of such assays
- particulars: source organism: Influenza A virus (A/goose/Guangxi/1097/2004(H5N1))
attribute measured: Kd

[[record]]
sequence_code = "KYTSGRQEK"
measured = "≥ 20 µM"


---

- tgt: HLA-A*02:01
- experiment summary: IEDB peptide-MHC binding, purified MHC/direct/fluorescence; filed as Kd, often an IC50 or EC50 that approximates it; bounds were set here for any values at or beyond the usual limits of such assays
- particulars: source organism: Vibrio cholerae
pKd: −log10 of the molar value.
attribute measured: pKd

[[record]]
sequence_code = "RYDYANLCQ"
tgt = "HLA-A*02:01"
attribute_measured = "pKd"
measured = "≤ 4.70"


---

- tgt: HLA-A*02:01
- experiment summary: IEDB peptide-MHC binding, purified MHC/direct/fluorescence; filed as Kd, often an IC50 or EC50 that approximates it; bounds were set here for any values at or beyond the usual limits of such assays
- particulars: source organism: Influenza A virus (A/swine/Bakum/5/95(H1N1))
attribute measured: Kd

[[record]]
sequence_code = "RGINDRNFW"
measured = "≥ 20 µM"


---

- tgt: HLA-A*68:02
- experiment summary: IEDB peptide-MHC binding, purified MHC/direct/fluorescence; filed as Kd, often an IC50 or EC50 that approximates it; bounds were set here for any values at or beyond the usual limits of such assays
- particulars: source organism: Calabazo virus
attribute measured: Kd

[[record]]
sequence_code = "RMMATKDSF"
attribute_measured = "Kd"
measured = "≥ 20 µM"


---

- tgt: HLA-B*54:01
- experiment summary: IEDB peptide-MHC binding, purified MHC/competitive/radioactivity; filed as Kd, often an IC50 or EC50 that approximates it; bounds were set here for any values at or beyond the usual limits of such assays
- particulars: source organism: Vaccinia virus WR
pKd: −log10 of the molar value.
attribute measured: pKd

[[record]]
sequence_code = "IPVDLVKSSF"
attribute_measured = "pKd"
qualifier_sign = "="
measured = 6.53

[[record]]
sequence_code = "TLNHVLALK"
attribute_measured = "pKd"
qualifier_sign = "≤"
measured = 4.11

[[record]]
sequence_code = "HPLSINVSGV"
attribute_measured = "pKd"
qualifier_sign = "="
measured = 6.92

[[record]]
sequence_code = "YPFYVSPTEM"
attribute_measured = "pKd"
qualifier_sign = "="
measured = 7.09

[[record]]
sequence_code = "VPEFAKQYVL"
attribute_measured = "pKd"
qualifier_sign = "="
measured = 5.73

[[record]]
sequence_code = "NPTSETMYL"
attribute_measured = "pKd"
qualifier_sign = "≤"
measured = 4.43

[[record]]
sequence_code = "IPFDDIVRTM"
attribute_measured = "pKd"
qualifier_sign = "="
measured = 5.37

[[record]]
sequence_code = "LPESDLDKV"
attribute_measured = "pKd"
qualifier_sign = "="
measured = 5.64

[[record]]
sequence_code = "RPRFDDAYNI"
attribute_measured = "pKd"
qualifier_sign = "="
measured = 5.62

[[record]]
sequence_code = "NTYLFNILY"
attribute_measured = "pKd"
qualifier_sign = "="
measured = 5.84

[[record]]
sequence_code = "KPKFCLIDGM"
attribute_measured = "pKd"
qualifier_sign = "="
measured = 4.84

[[record]]
sequence_code = "TPEQKAYVPA"
attribute_measured = "pKd"
qualifier_sign = "="
measured = 7.88

[[record]]
sequence_code = "NPDNTIAVI"
attribute_measured = "pKd"
qualifier_sign = "="
measured = 5.66

